Target: Glutaminase kidney isoform, mitochondrial (Homo sapiens)
Experiment: qHTS for Inhibitors of Glutaminase (GLS): LOPAC Validation (AID 624146); also: nearly all actives have a fitted effect of over 60% in size
Settings: glutaminase enzyme activity inhibition; series mostly up to 46.1 µM
Inconclusive results are not listed. Active and inactive are the calls of the source. Calls follow the shape of the dose curve; as a rule, active = well fitted inhibition curve with a large enough effect; inconclusive = small, poorly fitted or top-dose-only effect; inactive = no such curve, though single readings can be large or run the other way.
Tick one outcome: active, inactive

Inquiry: Kindly provide the recorded test outcome for the following molecule: C[C@@H]1O[C@@H](O[C@H]2C[C@@H](O)[C@]3(CO)[C@@H]4C(CC[C@]3(O)C2)[C@@]2(O)CC[C@H]([C@@H]3COC(=O)C3)[C@@]2(C)C[C@H]4O)[C@H](O)[C@H](O)[C@H]1O (stereo not given in full)
Reply text: inactive

Inquiry: Kindly provide the recorded test outcome for the following molecule: CN1CC[C@@]2(C)c3cc(OC(=O)Nc4ccccc4)ccc3N(C)[C@@H]12
Reply text: active

Further cases:
Inquiry: Kindly provide the recorded test outcome for the following molecule: CP(=O)(O)C1=CCNCC1
Reply text: inactive

Inquiry: Kindly provide the recorded test outcome for the following molecule: CCCn1c(=O)c2[nH]c(C3CCCC3)nc2n(CCCOC(=O)c2ccc(S(=O)(=O)F)cc2)c1=O
Reply text: inactive

Inquiry: Kindly provide the recorded test outcome for the following molecule: CCCCCCC(C)(C)c1ccc([C@@H]2C[C@H](O)CC[C@H]2CCCO)c(O)c1
Reply text: inactive

Inquiry: Kindly provide the recorded test outcome for the following molecule: Cc1sc2ccccc2c1CC1=NCCN1
Reply text: inactive

Inquiry: Kindly provide the recorded test outcome for the following molecule: NCC(O)c1cc(O)c(O)cc1F (stereo not given)
Reply text: inactive

Inquiry: Kindly provide the recorded test outcome for the following molecule: Clc1ccc(N2CC3CCC(C2)N3)nn1
Reply text: inactive

Inquiry: Kindly provide the recorded test outcome for the following molecule: CCCN(CCC)C1CCc2cccc(O)c2C1 (stereo not given)
Reply text: inactive

Inquiry: Kindly provide the recorded test outcome for the following molecule: COc1ccc(CNC(=O)/C=C/c2ccc3[nH]cc(CCN(C)C)c3c2)cc1
Reply text: inactive

----------
Assay: qHTS for differential inhibitors of proliferation of Plasmodium falciparum line HB3 (AID 1886);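 also: parasites grown with compound for 72 h before SYBR Green readout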
Settings: Plasmodium falciparum HB3 proliferation inhibition; series mostly up to 28.7 µM
Results filed as inconclusive are left out. Activity calls are given as the source filed them. Calls come from the whole dose curve; as a rule, active = well fitted curve in the direction sought with a large enough effect; inconclusive = small, poorly fitted or top-dose-only effect, or another doubt; inactive = no such curve, though single readings can be large or run the other way.
Tick one outcome: active, inactive

Inquiry: Kindly provide the recorded test outcome for the following compound: C[N+](C)(C)CC#CCN1CCCC1=O
Reply text: inactive

Inquiry: Kindly provide the recorded test outcome for the following compound: CC(N)c1cccc(Cl)c1Cl (stereo not drawn)
Reply text: inactive

Inquiry: Kindly provide the recorded test outcome for the following compound: CCN(CCCl)Cc1ccccc1Br
Reply text: active

Inquiry: Kindly provide the recorded test outcome for the following compound: C[C@H](N)CN1CCc2ccc(Br)cc21
Reply text: active

Inquiry: Kindly provide the recorded test outcome for the following compound: O=P(O)(O)C(Cl)(Cl)P(=O)(O)O
Reply text: inactive

Inquiry: Kindly provide the recorded test outcome for the following compound: NC(Cc1cc(O)c(O)cc1O)C(=O)O (stereo not drawn)
Reply text: inactive

Inquiry: Kindly provide the recorded test outcome for the following compound: N[C@@H](Cn1oc(=O)[nH]c1=O)C(=O)O
Reply text: inactive

Inquiry: Kindly provide the recorded test outcome for the following compound: NC(N)=NOCC[C@H](N)C(=O)O
Reply text: inactive

Inquiry: Kindly provide the recorded test outcome for the following compound: COc1ccc2c(c1)/C(=C/c1cnc[nH]1)C(=O)N2
Reply text: active

Inquiry: Kindly provide the recorded test outcome for the following compound: Oc1ccc2c3c1O[C@H]1c4oc5ccccc5c4C[C@@]4(O)C(C2)N(CC2CC2)CCC314 (stereo partly drawn)
Reply text: active

Further cases:
Inquiry: Kindly provide the recorded test outcome for the following compound: CC12NC(Cc3ccccc31)c1ccccc12 (stereo not drawn)
Reply text: inactive

Inquiry: Kindly provide the recorded test outcome for the following compound: OC1CCCCC1N1CCC(c2ccccc2)CC1 (stereo not drawn)
Reply text: inactive

Inquiry: Kindly provide the recorded test outcome for the following compound: CNc1ccc2oc(C[C@H]3O[C@@]4(CC[C@H]3C)O[C@H]([C@H](C)C(=O)c3ccc[nH]3)[C@H](C)C[C@H]4C)nc2c1C(=O)O
Reply text: active
